// inhibition at 1.3 µM lookup, one value per entry
test system: Blood; test: Anti-platelet aggregation activity in rabbit venous blood assessed as inhibition of ADP-induced aggregation at 1.3 uM pre-treated for 2 mins followed by ADP addition by Born turbidimetric method relative to control; format: functional; details: Oryctolagus cuniculus
# unit: % | format: bare number

These solved cases illustrate the format of a correct answer.
>>> obs_value("CCOc1ccc(S(=O)(=O)N2CCN(c3cccc(C)c3)CC2)cc1S(=O)(=O)N1CCN(c2cccc(C)c2)CC1")
50.3
>>> obs_value("COc1ccc(S(=O)(=O)N2CCN(C)CC2)cc1S(=O)(=O)N1CCN(C)CC1")
38.2
>>> obs_value("COc1ccc(S(=O)(=O)N2CCN(c3cccc(C)c3)CC2)cc1S(=O)(=O)N1CCN(c2cccc(C)c2)CC1")
21.1

Continue with the compound presented below.
Fill in the recorded inhibition at 1.3 µM for this compound, with Blood as test system: COc1ccc(S(=O)(=O)N2CCN(Cc3ccccc3)CC2)cc1S(=O)(=O)N1CCN(Cc2ccccc2)CC1
33.2
